Biological target: HLA-A*01:01
Assay: IEDB peptide-MHC binding, purified MHC/competitive/fluorescence; filed as Kd, often an IC50 or EC50 that approximates it; bounds were set here for any values at or beyond the usual limits of such assays
Settings: source organism: Encephalitozoon cuniculi GB-M1
pKd: −log10 of the molar value.
Endpoint label: pKd

Item GGRKLKLTK with HLA-A*01:01 - pKd? ≤ 4.70

====

Target: HLA-A*30:01
Test: IEDB peptide-MHC binding, purified MHC/competitive/fluorescence; filed as Kd, often an IC50 or EC50 that approximates it; bounds were set here for any values at or beyond the usual limits of such assays
Conditions: source organism: Entamoeba histolytica HM-1:IMSS
Endpoint label: Kd

Tell me the measured Kd of EVRKAIEFV , please. ≥ 5 µM

====

Target: HLA-B*58:01
Test: IEDB peptide-MHC binding, purified MHC/competitive/fluorescence; bounds were set here for any values at or beyond the usual limits of such assays
Conditions: source organism: Homo sapiens
pIC50: −log10 of the molar value.
Endpoint label: pIC50

Looking for the measured pIC50 of LPSCPTNFCIF , can you help? ≤ 4.70

====

Target: HLA-A*01:01
Assay: IEDB peptide-MHC binding, purified MHC/direct/fluorescence; filed as Kd, often an IC50 or EC50 that approximates it; bounds were set here for any values at or beyond the usual limits of such assays
Conditions: source organism: Corynebacterium glutamicum
Endpoint label: Kd

Dear colleague, I am looking for the recorded Kd of the following sequence: YELLRYNEY ≥ 20 µM

====

# reported pKd; entries follow
Biological target: HLA-B*27:05
Assay: IEDB peptide-MHC binding, purified MHC/direct/fluorescence; filed as Kd, often an IC50 or EC50 that approximates it; bounds were set here for any values at or beyond the usual limits of such assays
Settings: source organism: Vibrio cholerae
pKd: −log10 of the molar value.

Request the reported pKd associated with KEDPGDHIF ≤ 4.70

// next item, pKd requested
So what's the measured pKd for this one? IPISGRITA ≤ 4.70

====

Target: HLA-B*40:01
Assay: IEDB peptide-MHC binding, purified MHC/direct/fluorescence; filed as Kd, often an IC50 or EC50 that approximates it; bounds were set here for any values at or beyond the usual limits of such assays
Details: source organism: Influenza A virus (A/chicken/Vietnam/5/2003(H5N1))
Endpoint label: Kd

Quick one: Kd for RVDKLTQGR ? ≥ 20 µM

====

Molecular target: HLA-B*35:01
Assay: IEDB peptide-MHC binding, purified MHC/competitive/radioactivity; filed as Kd, often an IC50 or EC50 that approximates it; bounds were set here for any values at or beyond the usual limits of such assays
Details: source organism: Dengue virus 2 Peru/IQT2913/1996
Endpoint label: Kd (µM)
Reply with just the number (in µM).

Record lookup: for HLA-B*35:01, what Kd belongs to LPVWLAYKVA ? 5.09

====

Molecular target: HLA-A*02:01
Assay: IEDB peptide-MHC binding, cellular MHC/competitive/fluorescence; bounds were set here for any values at or beyond the usual limits of such assays
Details: source organism: human gammaherpesvirus 4
Endpoint label: pIC50
API: returns pIC50 as number; meaning -log10 of concentration in mol/L.

Look at this sequence and give its reported pIC50. CLGGLLTMV 5.60

====

Target: HLA-A*26:01
Assay: IEDB peptide-MHC binding, purified MHC/direct/fluorescence; filed as Kd, often an IC50 or EC50 that approximates it; bounds were set here for any values at or beyond the usual limits of such assays
Conditions: source organism: Campylobacter jejuni RM1221
Endpoint label: Kd

May I ask what Kd has been recorded for KSNEKNMDF ? ≥ 20 µM

====

Biological target: HLA-B*15:17
Experiment: IEDB peptide-MHC binding, purified MHC/competitive/fluorescence; filed as Kd, often an IC50 or EC50 that approximates it; bounds were set here for any values at or beyond the usual limits of such assays
Details: source organism: Human immunodeficiency virus 1
Endpoint label: pKd
// pKd here means minus log10 of the molar concentration (mol/L)

Can you look up pKd on HLA-B*15:17 for RSLFNTIAVLY ? 7.03

Could you now look at the following sequence, please?
Provide value of pKd for this record tested with HLA-B*15:17: GTEEIRSLF 6.65

====

Biological target: HLA-B*44:02
Test: IEDB peptide-MHC binding, purified MHC/direct/fluorescence; filed as Kd, often an IC50 or EC50 that approximates it; bounds were set here for any values at or beyond the usual limits of such assays
Conditions: source organism: Campylobacter jejuni RM1221
Endpoint label: Kd

Which value of Kd has been reported for KSNEKNMDF in the records? ≥ 20 µM

====

Biological target: HLA-A*69:01
Assay: IEDB peptide-MHC binding, purified MHC/direct/fluorescence; filed as Kd, often an IC50 or EC50 that approximates it; bounds were set here for any values at or beyond the usual limits of such assays
Conditions: source organism: Yellow fever virus 17D
pKd: −log10 of the molar value.
Endpoint label: pKd

Item AMLHWSLIL has what recorded pKd? ≤ 4.70

====

Listing of entries alongside the reported Kd.
Molecular target: HLA-A*01:01
Experiment: IEDB peptide-MHC binding, purified MHC/competitive/radioactivity; filed as Kd, often an IC50 or EC50 that approximates it; bounds were set here for any values at or beyond the usual limits of such assays
Details: source organism: Dengue virus 2 Jamaica/1409/1983

The following sequences have reported results that may help.
Request: Kd, test system HLA-A*01:01, entry VTDFKGKTV ≥ 20.3 µM

Can you look up Kd on HLA-A*01:01 for LTDGEERVIL ? ≥ 23.6 µM

Turning now to a further record.
Given the entry ALGKSEFQIY , what Kd was observed with HLA-A*01:01? 1.54 µM

====

Molecular target: HLA-A*11:01
Experiment: IEDB peptide-MHC binding, purified MHC/direct/fluorescence; filed as Kd, often an IC50 or EC50 that approximates it; bounds were set here for any values at or beyond the usual limits of such assays
Conditions: source organism: Variola virus
Endpoint label: Kd (nM)
// units = nM; emit number, no label

State the recorded Kd for this entry: ITMVNSLTY 12

====

Target: HLA-A*03:01
Test: IEDB peptide-MHC binding, purified MHC/direct/fluorescence; filed as Kd, often an IC50 or EC50 that approximates it; bounds were set here for any values at or beyond the usual limits of such assays
Details: source organism: Reston ebolavirus
pKd: −log10 of the molar value.
Endpoint label: pKd

Sample RRELSKEKL — what was its pKd? ≤ 4.70

====

Target: HLA-B*18:01
Test: IEDB peptide-MHC binding, purified MHC/competitive/radioactivity; filed as Kd, often an IC50 or EC50 that approximates it; bounds were set here for any values at or beyond the usual limits of such assays
Conditions: source organism: SARS coronavirus Tor2
Endpoint label: Kd (µM)
Numeric answer only, unit µM assumed.

Which measured Kd value corresponds to YENAFLPFT ? 0.112

Reported Kd, sequence QEAYEQAVA : ____ 3.87

Field request: Kd | item: YEQVVMDYL 0.349

Item STFVSAARQG has what recorded Kd? 8.68

Bench note: what Kd did DEDDSEPVL show? 5.29

---
May I ask what Kd has been recorded for AEVVKLPSRY ? 4.99

====

Target: HLA-B*40:01
Test: IEDB peptide-MHC binding, purified MHC/competitive/radioactivity; filed as Kd, often an IC50 or EC50 that approximates it; bounds were set here for any values at or beyond the usual limits of such assays
Conditions: source organism: Hepatitis C virus (isolate 1)
Endpoint label: Kd

# query: Kd of entry HPNIEEVAL ≥ 76.2 µM

====

Molecular target: HLA-B*57:01
Experiment: IEDB peptide-MHC binding, purified MHC/competitive/fluorescence; filed as Kd, often an IC50 or EC50 that approximates it; bounds were set here for any values at or beyond the usual limits of such assays
Settings: source organism: Fowlpox virus
Endpoint label: Kd

Could you tell me which Kd is on file for VIMWYNYLF ? ≥ 20 µM

====

Molecular target: HLA-A*11:01
Assay: IEDB peptide-MHC binding, purified MHC/direct/fluorescence; filed as Kd, often an IC50 or EC50 that approximates it; bounds were set here for any values at or beyond the usual limits of such assays
Conditions: source organism: Burkholderia mallei
pKd: −log10 of the molar value.
Endpoint label: pKd

If you can, please state the reported pKd value of ISDSAQNMM . ≤ 4.70

====

# Kd per entry
Target: HLA-B*46:01
Assay: IEDB peptide-MHC binding, purified MHC/direct/fluorescence; filed as Kd, often an IC50 or EC50 that approximates it; bounds were set here for any values at or beyond the usual limits of such assays
Settings: source organism: Mycobacterium tuberculosis

State the recorded Kd for this entry: GPAGYTAAL ≥ 20 µM

Shift focus to the following entry.
# query: Kd of entry AVFLSYIGY ≥ 20 µM

====

Molecular target: HLA-A*29:02
Experiment: IEDB peptide-MHC binding, purified MHC/competitive/radioactivity; filed as Kd, often an IC50 or EC50 that approximates it; bounds were set here for any values at or beyond the usual limits of such assays
Details: source organism: Mammarenavirus guanaritoense
Entries annotated with measured Kd

# lookup: Kd of RYNLDPDTI ≥ 40600 nM

In the following, a different sequence is considered.
What does the data say about its Kd? Entry: MSPALFHAFF 513 nM

Every entry's value here was drawn from the Immune Epitope Database (IEDB).
